molecular target: recombinant human PDE-10 enzyme (human PDE-10A) (Homo sapiens (Human), UniProt Q9Y233); assay: human PDE-10 inhibition assay (Molecular Devices IMAP PDE Fluorescence Polarization, enzyme assay IC50); settings: Fluorescein-labeled cAMP/cGMP substrate, 40-minute incubation at 37° C.
Sequence (Q9Y233 whole entry): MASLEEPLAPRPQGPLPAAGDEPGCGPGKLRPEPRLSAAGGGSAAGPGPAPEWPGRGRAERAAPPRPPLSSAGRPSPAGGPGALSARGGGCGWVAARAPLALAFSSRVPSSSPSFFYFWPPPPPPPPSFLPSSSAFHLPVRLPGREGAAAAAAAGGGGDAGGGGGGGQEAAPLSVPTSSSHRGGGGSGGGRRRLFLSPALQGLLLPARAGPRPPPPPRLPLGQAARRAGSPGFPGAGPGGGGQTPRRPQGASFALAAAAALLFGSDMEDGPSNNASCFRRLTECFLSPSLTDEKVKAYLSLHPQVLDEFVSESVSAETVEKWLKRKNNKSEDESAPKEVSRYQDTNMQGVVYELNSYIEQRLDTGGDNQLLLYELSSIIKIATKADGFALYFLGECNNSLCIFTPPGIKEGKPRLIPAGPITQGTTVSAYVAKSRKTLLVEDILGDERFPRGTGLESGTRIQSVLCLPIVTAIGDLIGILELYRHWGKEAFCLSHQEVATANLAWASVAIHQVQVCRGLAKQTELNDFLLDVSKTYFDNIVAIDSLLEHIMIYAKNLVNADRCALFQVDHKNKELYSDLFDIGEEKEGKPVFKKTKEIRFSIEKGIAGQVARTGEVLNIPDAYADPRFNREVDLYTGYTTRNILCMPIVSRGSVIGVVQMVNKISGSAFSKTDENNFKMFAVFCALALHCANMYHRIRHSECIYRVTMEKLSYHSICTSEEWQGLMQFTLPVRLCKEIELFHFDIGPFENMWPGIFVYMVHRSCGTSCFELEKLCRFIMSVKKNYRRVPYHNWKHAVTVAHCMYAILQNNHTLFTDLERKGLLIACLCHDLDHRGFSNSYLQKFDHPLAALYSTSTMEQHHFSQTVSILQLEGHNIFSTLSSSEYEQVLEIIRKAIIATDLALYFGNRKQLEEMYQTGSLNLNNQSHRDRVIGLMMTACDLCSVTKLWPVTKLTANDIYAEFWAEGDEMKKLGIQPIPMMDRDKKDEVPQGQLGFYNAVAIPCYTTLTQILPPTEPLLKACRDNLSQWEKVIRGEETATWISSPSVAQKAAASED

[
  {
    "Compound": "Cc1ncc(C)n2nc(C3CC3c3nc4c5c(ccn4c3F)OCCO5)nc12 (racemic)",
    "IC50": "10 to 100 nM"
  },
  {
    "Compound": "Cc1ncc(C)n2nc(C3CC3c3nc4c5c(ccn4c3C)OCCO5)nc12 (racemic)",
    "IC50": "10 to 100 nM"
  },
  {
    "Compound": "CCOc1cccn2cc(C3CC3c3nc4c(C)ncc(C)n4n3)nc12 (stereo not drawn)",
    "IC50": "10 to 100 nM"
  },
  {
    "Compound": "Cc1ncc(C)n2nc(C3CC3c3nc4cc(F)ccn4c3C)nc12 (stereo not drawn)",
    "IC50": "> 500 nM"
  },
  {
    "Compound": "Cc1ncc(C)n2nc([C@H]3C[C@@H]3c3nc4c5cccnc5ccc4n3C)nc12",
    "IC50": "100 to 500 nM"
  },
  {
    "Compound": "Cc1cc2nc(C3CC3c3nc4c(C)ncc(C)n4n3)c(C)n2cc1F (racemic)",
    "IC50": "100 to 500 nM"
  },
  {
    "Compound": "Cc1ncc(C)n2nc(C3CC3c3nc4c5cccnc5ccn4c3C)nc12 (stereo not drawn)",
    "IC50": "≤ 10 nM"
  },
  {
    "Compound": "COc1cccn2cc(C3CC3c3nc4c(C)ncc(C)n4n3)nc12 (racemic)",
    "IC50": "100 to 500 nM"
  },
  {
    "Compound": "Cn1c(C2CC2c2ccc3ccccc3n2)nc2c3cccnc3ccc21 (stereo not drawn)",
    "IC50": "100 to 500 nM"
  },
  {
    "Compound": "Cc1ccn2c(C)c(C3CC3c3cn4ccc(F)cc4n3)nc2c1 (stereo not drawn)",
    "IC50": "> 500 nM"
  },
  {
    "Compound": "COc1cc(OC)c2nc(C3CC3c3nc4c(C)ncc(C)n4n3)c(C)n2c1 (racemic)",
    "IC50": "10 to 100 nM"
  },
  {
    "Compound": "COc1cc(C)cn2c(C)c(C3CC3c3nc4c(C)ncc(C)n4n3)nc12 (racemic)",
    "IC50": "10 to 100 nM"
  },
  {
    "Compound": "CCOc1ccn2c(C)c(C3CC3c3nc4c(C)ncc(C)n4n3)nc2c1 (stereo not drawn)",
    "IC50": "> 500 nM"
  },
  {
    "Compound": "COc1ccn2cc(C3CC3c3nc4c(C)ncc(C)n4n3)nc2c1 (stereo not drawn)",
    "IC50": "> 500 nM"
  },
  {
    "Compound": "Cc1ncc(C)n2nc(C3CC3c3nc4c5ccccc5ccn4c3C)nc12 (stereo not drawn)",
    "IC50": "≤ 10 nM"
  },
  {
    "Compound": "Cc1ncc(C)n2nc(C3CCC3c3nc4c5cccnc5ccc4n3C)nc12 (racemic)",
    "IC50": "> 500 nM"
  },
  {
    "Compound": "Clc1cccn2cc(C3CCC3c3cn4cccc(Cl)c4n3)nc12 (stereo not drawn)",
    "IC50": "100 to 500 nM"
  },
  {
    "Compound": "COc1ccn2cc(C3CC3c3nc4c(C)ncc(C)n4n3)nc2c1C (stereo not drawn)",
    "IC50": "> 500 nM"
  },
  {
    "Compound": "Fc1cccn2cc(C3CC3c3cn4cccc(F)c4n3)nc12 (stereo not drawn)",
    "IC50": "> 500 nM"
  },
  {
    "Compound": "Cc1ncc(C)n2cc(C3CC3c3nc4c(C)ncc(C)n4n3)nc12 (racemic)",
    "IC50": "> 500 nM"
  },
  {
    "Compound": "Cn1c(C2CCC2c2nc3c4cccnc4ccc3n2C)nc2c3cccnc3ccc21 (stereo not drawn)",
    "IC50": "> 500 nM"
  },
  {
    "Compound": "COc1cc(C)cn2c(F)c(C3CC3c3nc4c(C)ncc(C)n4n3)nc12 (racemic)",
    "IC50": "10 to 100 nM"
  },
  {
    "Compound": "Cc1ncc(C)n2nc(C3CC3c3nc(-c4ccccc4)cn3C)nc12 (stereo not drawn)",
    "IC50": "10 to 100 nM"
  },
  {
    "Compound": "COc1cccn2c(F)c([C@@H]3C[C@H]3c3nc4c(C)ncc(C)n4n3)nc12 (single isomer, unassigned) [Compound 56]",
    "IC50": "> 500 nM"
  },
  {
    "Compound": "Cc1ncc(C)n2nc(C3CC3c3nc4c(C5CC5)cccn4c3C)nc12 (stereo not drawn)",
    "IC50": "10 to 100 nM"
  },
  {
    "Compound": "Cc1ncc(C)n2nc(C3CC3c3cn4ccc5c(c4n3)OCCO5)nc12 (racemic)",
    "IC50": "10 to 100 nM"
  },
  {
    "Compound": "COc1cccc2[nH]c(C3CC3c3nc4c(C)ncc(C)n4n3)nc12 (racemic)",
    "IC50": "100 to 500 nM"
  },
  {
    "Compound": "Cc1ncc(C)n2nc([C@H]3C[C@@H]3c3nc4c5cccnc5ccn4c3C)nc12 (single isomer, unassigned)",
    "IC50": "100 to 500 nM"
  },
  {
    "Compound": "Cc1ncc(C)n2nc([C@@H]3C[C@H]3c3nc4c5cccnc5ccn4c3C)nc12 (single isomer, unassigned)",
    "IC50": "≤ 10 nM"
  },
  {
    "Compound": "COc1cccn2c(C)c(C3CCC3c3nc4c(C)ncc(C)n4n3)nc12 (racemic)",
    "IC50": "> 500 nM"
  },
  {
    "Compound": "Cn1c([C@@H]2C[C@H]2c2ccc3ccccc3n2)nc2c3cccnc3ccc21 (single isomer, unassigned)",
    "IC50": "100 to 500 nM"
  },
  {
    "Compound": "COc1cc(F)cn2c(C)c(C3CC3c3nc4c(C)ncc(C)n4n3)nc12 (racemic)",
    "IC50": "10 to 100 nM"
  },
  {
    "Compound": "Cc1ncc(C)n2nc(C3CCC3c3cn4ccc5c(c4n3)OCCO5)nc12 (racemic)",
    "IC50": "100 to 500 nM"
  }
]

----------
target: recombinant human PDE-10 enzyme (human PDE-10A) (Homo sapiens (Human)); experiment: human PDE-10 inhibition assay (Molecular Devices IMAP PDE Fluorescence Polarization, enzyme assay IC50); conditions: Fluorescein-labeled cAMP/cGMP substrate, 40-minute incubation at 37° C.

[
  {
    "Compound": "Cc1ccn2cc(C3CC3c3nc4c(C)ncc(C)n4n3)nc2c1 (stereo not shown)",
    "IC50": "> 500 nM"
  },
  {
    "Compound": "COc1cccn2c(F)c(C3CC3c3nc4c(C)ncc(C)n4n3)nc12 (racemic)",
    "IC50": "10 to 100 nM"
  },
  {
    "Compound": "Cc1ncc(C)n2nc([C@@H]3C[C@H]3c3nc4c5cccnc5ccc4n3C)nc12",
    "IC50": "≤ 10 nM"
  },
  {
    "Compound": "COc1cccc2c1nc(C1CC1c1nc3c(C)ncc(C)n3n1)n2C (racemic)",
    "IC50": "100 to 500 nM"
  },
  {
    "Compound": "COc1cccn2c(C)c(C3CC3c3nc4c(C)ncc(C)n4n3)nc12 (stereo not shown)",
    "IC50": "10 to 100 nM"
  },
  {
    "Compound": "COc1cccn2c(F)c([C@@H]3C[C@H]3c3nc4c(C)ncc(C)n4n3)nc12 (single isomer, unassigned) [Compound 57]",
    "IC50": "10 to 100 nM"
  },
  {
    "Compound": "COc1ccn2c(C)c(C3CC3c3nc4c(C)ncc(C)n4n3)nc2c1 (stereo not shown)",
    "IC50": "100 to 500 nM"
  },
  {
    "Compound": "CCOc1cccn2c(C)c(C3CC3c3nc4c(C)ncc(C)n4n3)nc12 (racemic)",
    "IC50": "10 to 100 nM"
  },
  {
    "Compound": "Clc1cccn2cc(C3CC3c3cn4cccc(Cl)c4n3)nc12 (stereo not shown)",
    "IC50": "> 500 nM"
  },
  {
    "Compound": "COc1ccn2c(C)c(C3CCC3c3nc4c(C)ncc(C)n4n3)nc2c1 (racemic)",
    "IC50": "> 500 nM"
  },
  {
    "Compound": "Cc1cccn2cc(C3CC3c3cn4cccc(C)c4n3)nc12 (stereo not shown)",
    "IC50": "> 500 nM"
  },
  {
    "Compound": "Fc1ccn2cc(C3CCC3c3cn4cccc(Cl)c4n3)nc2c1 (racemic) [Compound 58]",
    "IC50": "> 500 nM"
  },
  {
    "Compound": "Cc1cc2nc(C3CC3c3nc4c(C)ncc(C)n4n3)cn2cc1F (stereo not shown)",
    "IC50": "> 500 nM"
  },
  {
    "Compound": "Fc1ccn2cc(C3CCC3c3cn4cccc(Cl)c4n3)nc2c1 (stereo not shown) [Compound 24]",
    "IC50": "> 500 nM"
  },
  {
    "Compound": "Cn1c([C@H]2C[C@@H]2c2ccc3ccccc3n2)nc2c3cccnc3ccc21 (single isomer, unassigned)",
    "IC50": "10 to 100 nM"
  },
  {
    "Compound": "Cc1ncc(C)n2nc(C3CC3c3nc4c(OC(F)F)cccn4c3C)nc12 (racemic)",
    "IC50": "100 to 500 nM"
  },
  {
    "Compound": "Fc1ccn2cc(C3CC3c3cn4ccc(F)cc4n3)nc2c1 (stereo not shown)",
    "IC50": "> 500 nM"
  },
  {
    "Compound": "Cc1ccn2c(C)c(C3CC3c3nc4c(C)ncc(C)n4n3)nc2c1 (stereo not shown)",
    "IC50": "100 to 500 nM"
  },
  {
    "Compound": "Cc1ncc(C)n2nc(C3CC3c3nc4c5cccc(F)c5ccn4c3C)nc12 (racemic)",
    "IC50": "10 to 100 nM"
  }
]
